Just for reference, paper PMC9270183 is where these values come from.

- TARGET OR SYSTEM: T1, 417N/484K/501Y RBD mutant (SARS-CoV-2, Wuhan-Hu-1 RBD backbone …, 417N | 484K | 501Y)
- T1 construct: also called RBD KEN
- ASSAY OVERVIEW: BLI
- CONDITION DESCRIPTION: both partners purified
Measured Kd values are reported for all entries that follow.
ENDPOINT: Kd

[
  {
    "BINDER": "V048 (antibody, V domains shown, IgG; donor BRA15; source: recombinant monoclonal IgG, produced and purified as previously described) VH: QVQLVQSGAEVKKPGASVKVSCKASGYTFTSYVISWVRQAPGQGLEWMGWISAYNGNTNYAQKLQGRVTMTTDTSTSTAYMELRSLRSDDTAVYYCARDVAGITMIVEEVIDAFDIWGQGTMVTVSS VL: SYELTQPSSVSVSPGQTARITCSGDVLAKKYARWFQQKPGQAPVLVIYKDSERPSGIPERFSGSSSGTTVTLTISGAQVEDEADYYCFSAPDNNRVFGGGTKLTVL",
    "ENDPOINT": "Kd",
    "REPORTED MEASUREMENT": "6.26 nM"
  },
  {
    "BINDER": "V016 (antibody, V domains shown, IgG; donor BRA13; source: recombinant monoclonal IgG, produced and purified as previously described) VH: QVQLVESGGGVVQPGRSLRLSCAASGFTFSNYGMHWVRQAPGKGLEWVAVISYDGSNKYYADSVKGRFTISRDNSKNTLYLQMNSVRVEDTAVYYCAKGSFGYSYVHTYFDYWGQGTLVTVSS VL: DIQMTQSPSTLSASVGDRVTITCRASQSISSWLAWYQQKPGKAPKLLIYDASSLESGVPSRFSGSGSGTEFILTISSLQPDDFATYYCQQYNSPMYTFGQGTKLEIK",
    "ENDPOINT": "Kd",
    "REPORTED MEASUREMENT": "4.43 nM"
  },
  {
    "BINDER": "V022 (antibody, V domains shown, IgG; donor BRA13; source: recombinant monoclonal IgG, produced and purified as previously described) VH: EVQLVESGGGLVKPGGSLRLSCAASGFTFSSYSMNWVRQAPGKGLEWVSSISSTNNYIYNADSVKGRFTISRDNAKNSLYLQMNSLRAEDTAVYYCARDPAGRYSYGLYYFYYMDVWGKGTTVTVSS VL: QSALTQPASVSGSPGQSITISCTGTSSDVGGYNYVSWYQQRPGKAPKLMIYDVSNRPSGVSDRFSGSKSGNTASLTISGLQAEDEADYYCTSYTSSSSLYVFGTGTKVTVL",
    "ENDPOINT": "Kd",
    "REPORTED MEASUREMENT": "5.71 nM"
  }
]
